From: PubChem BioAssay (NCATS)

# measurement-notes: qHTS of pediatric cancer cell lines to identify multiple opportunities for drug repurposing: Primary screen for A673 cells (AID 1347092); also: nearly all actives have a fitted effect of over 45% in size
# setup-conditions: A673 Ewing sarcoma viability, CellTiter-Glo ATP luminescence, 48 h; series mostly up to 46 µM
Results filed as inconclusive are left out. The source made the active and inactive calls. Calls follow the shape of the dose curve; as a rule, active = well fitted cell-killing curve with a large enough effect; inconclusive = small, poorly fitted or top-dose-only effect; inactive = no such curve, though single readings can be large or run the other way.
Your reply should match one of these outcome classes. T for active, F for inactive

Please review the following examples before continuing.
[in] Tell me the assay call for COC1=C(OC)C(=O)C(CC=C(C)CCC=C(C)CCC=C(C)CCC=C(C)CCC=C(C)CCC=C(C)CCC=C(C)CCC=C(C)CCC=C(C)CCC=C(C)C)=C(C)C1=O please.
[out] F

[in] Tell me the assay call for COC(=O)[C@H](CCCN=C(N)N)NS(=O)(=O)c1ccc(C)cc1 please.
[out] F

[in] Tell me the assay call for COc1cc(O)c2c(c1)C1OC1C[C@H](O)[C@H](O)C(=O)C=CC[C@H](C)OC2=O (some centres undefined) please.
[out] T

Others:
[in] Tell me the assay call for O=c1[nH]c(=O)n([C@H]2C[C@@H](O)[C@@H](CO)O2)cc1F please.
[out] T

[in] Tell me the assay call for CCS(=O)(=O)Nc1ccc2[nH]c(O)c(C(=Nc3ccc(CN4CCCCC4)cc3)c3ccccc3)c2c1 please.
[out] T

[in] Tell me the assay call for C=CC1=C(C(=O)O)N2C(=O)[C@@H](NC(=O)C(=NO)c3csc(N)n3)[C@H]2SC1 please.
[out] F

[in] Tell me the assay call for O=C(O)C(=O)Nc1cccc(C2=NN=N[N]2)c1 please.
[out] F

[in] Tell me the assay call for C#CCC(Cc1cnc2nc(N)nc(N)c2n1)c1ccc(C(=O)N[C@@H](CCC(=O)O)C(=O)O)cc1 (some centres undefined) please.
[out] T

[in] Tell me the assay call for CN1CCc2c(c3ccccc3n2Cc2ccc(C(=O)NO)cc2)C1 please.
[out] T

[in] Tell me the assay call for C=CC[C@@H]1C=C(C)C[C@H](C)C[C@H](OC)[C@H]2O[C@@](O)(C(=O)C(=O)N3CCCC[C@H]3C(=O)O[C@H](C(C)=C[C@@H]3CC[C@H](O)[C@H](OC)C3)[C@@H](C)[C@@H](O)CC1=O)[C@@H](C)C[C@@H]2OC please.
[out] F

[in] Tell me the assay call for COc1cc(C)c(C=CC(C)=CC=CC(C)=CC(=O)O)c(C)c1C please.
[out] F

[in] Tell me the assay call for O=[N+]([O-])c1cn2c(n1)OC[C@@H](OCc1ccc(OC(F)(F)F)cc1)C2 please.
[out] F

[in] Tell me the assay call for NC(=O)c1ncn([C@@H]2O[C@H](CO)[C@@H](O)[C@@H]2O)c1N please.
[out] F

[in] Tell me the assay call for CC1(C)CC(O)CC(C)(C)N1[O] please.
[out] F

[in] Tell me the assay call for O=C(C=Cc1ccc(CN(CCO)CCc2c[nH]c3ccccc23)cc1)NO please.
[out] T

[in] Tell me the assay call for COc1ccnc2[nH]cc(C(=O)C(=O)N3CCN(C(=O)c4ccccc4)C[C@@H]3C)c12 please.
[out] F

[in] Tell me the assay call for Cc1ccccc1C(=O)Nc1ccc(C(=O)N2CCCC(O)c3cc(Cl)ccc32)c(C)c1 (centres undefined) please.
[out] F

[in] Tell me the assay call for C[C@H](NCc1ccc(OCc2cccc(F)c2)cc1)C(N)=O please.
[out] T

[in] Tell me the assay call for O=c1[nH]c(=O)n([C@H]2C[C@@H](O)[C@@H](CO)O2)cc1C=CBr please.
[out] F

[in] Tell me the assay call for CCN(CC)CCNC(=O)c1c(C)[nH]c(C=C2C(=O)Nc3ccc(F)cc32)c1C please.
[out] T

[in] Tell me the assay call for CC1(C)[C@H](O[C@H]2O[C@H](C(=O)O)[C@@H](O)[C@H](O)[C@H]2O[C@@H]2O[C@H](C(=O)O)[C@@H](O)[C@H](O)[C@H]2O)CC[C@@]2(C)[C@H]1CC[C@]1(C)[C@H]2C(=O)C=C2[C@H]3C[C@@](C)(C(=O)O)CC[C@]3(C)CC[C@]21C please.
[out] F

====

# measurement-notes: Quantitative High-Throughput drug screen in 47 multiple myeloma cell lines against the NCATS MIPE library collection: Karpas417_ECACC cell viability assay (AID 1918961)
# setup-conditions: Karpas417 myeloma viability, CellTiter-Glo ATP luminescence, 48 h
Inconclusive results are not listed. Active and inactive are the calls of the source. Calls follow the shape of the dose curve; as a rule, active = well fitted cell-killing curve with a large enough effect; inconclusive = small, poorly fitted or top-dose-only effect, or effect the other way; inactive = no such curve, though single readings can be large or run the other way.
Your reply should match one of these outcome classes. active, inactive

[in] Tell me the assay call for CCN(CC)CCNC(=O)c1c(C)[nH]c(C=C2C(=O)Nc3ccc(F)cc32)c1C please.
[out] active

[in] Tell me the assay call for CCOC(=O)N1CCN([N+]([O-])=NOc2ccc([N+](=O)[O-])cc2C#N)CC1 please.
[out] active

[in] Tell me the assay call for CC(=O)ON=C1C(c2c(O)[nH]c3cc(Br)ccc23)=Nc2ccccc21 please.
[out] active

[in] Tell me the assay call for CC(C=CC=C(C)C=CC1=C(C)CCCC1(C)C)=CC=CC=C(C)C=CC=C(C)C=CC1=C(C)CCCC1(C)C please.
[out] active

[in] Tell me the assay call for COc1cc(C[C@@H](CO)[C@H](CO)Cc2ccc(O)c(OC)c2)ccc1O please.
[out] active

[in] Tell me the assay call for COc1cc(CCc2cc(NC(=O)c3ccc(N4C[C@@H](C)N[C@@H](C)C4)cc3)n[nH]2)cc(OC)c1 please.
[out] active

[in] Tell me the assay call for COC1=C(OC)C(=O)C(CC=C(C)CCC=C(C)CCC=C(C)CCC=C(C)CCC=C(C)CCC=C(C)CCC=C(C)CCC=C(C)CCC=C(C)CCC=C(C)C)=C(C)C1=O please.
[out] inactive

[in] Tell me the assay call for OC[C@H]1OC(O)C[C@@H](O)[C@H]1O (some centres undefined) please.
[out] inactive

[in] Tell me the assay call for O=C(Nc1cc2cc[nH]c2cn1)c1ccccc1 please.
[out] active

[in] Tell me the assay call for C=C[C@@H]1CN2CCC1C[C@H]2[C@H](O)c1ccnc2ccc(OC)cc12 (some centres undefined) please.
[out] inactive

Others:
[in] Tell me the assay call for CO[C@@H]1[C@@H](O)[C@H](O)[C@@H](n2c3c(Cl)cccc3c3c4c(c5c6cccc(Cl)c6[nH]c5c32)C(=O)NC4=O)O[C@@H]1CO please.
[out] active

====

# measurement-notes: qHTS Screen of the MIPE 4.0 Collection Against Ewings Sarcoma (RDES) (AID 1259252); also: nearly all actives have a fitted effect of over 35% in size
# setup-conditions: RD-ES Ewing sarcoma viability, CellTiter-Glo, 48 h; series mostly up to 45.8 µM
Results filed as inconclusive are left out. The source made the active and inactive calls. The call rests on the fitted dose curve; in most records, active means well fitted inhibition curve with a large enough effect; inconclusive means small, poorly fitted or top-dose-only effect; inactive means no such curve, though single readings can be large or run the other way. Residues, ends and D or L forms follow the SMILES beside them. *: point of attachment. Cbz = O=C(OCc1ccccc1)*
Your reply should match one of these outcome classes. active, inactive

Please review the following examples before continuing.
[in] Tell me the assay call for O=C(C=CC#Cc1cccc(NS(=O)(=O)c2ccccc2)c1)NO please.
[out] active

[in] Tell me the assay call for COc1ccc([C@@H]2CNC(=O)C2)cc1OC1CCCC1 please.
[out] active

[in] Tell me the assay call for Cc1ccc(-n2[nH]c(C)c(N=Nc3cccc(-c4cccc(C(=O)O)c4)c3O)c2=O)cc1C please.
[out] active

[in] Tell me the assay call for O=C1c2cccc(O)c2C(=O)c2c(O)cc(CO)cc21 please.
[out] inactive

[in] Tell me the assay call for CC(C)C[C@@H](C=O)NC(=O)[C@H](CC(C)C)NC(=O)[C@H](CC(C)C)NC(=O)OCc1ccccc1 (Cbz-Leu-Leu-Leu-aldehyde) please.
[out] active

We next turn to a different molecule, shown below.
[in] Tell me the assay call for C[C@H](O)[C@@H]1C(=O)N2C(C(=O)O)=C(S[C@@H]3CN[C@H](CNS(N)(=O)=O)C3)[C@@H](C)[C@@H]12 please.
[out] inactive

====

# measurement-notes: Quantitative High-Throughput drug screen in 47 multiple myeloma cell lines against the NCATS MIPE library collection: MM1S_ATCC cell viability assay (AID 1918980); also: nearly all actives have a fitted effect of over 45% in size
# setup-conditions: MM1S myeloma viability, CellTiter-Glo ATP luminescence, 48 h; series mostly up to 45.8 µM
Records with an inconclusive call do not appear. Activity calls are given as the source filed them. The call rests on the fitted dose curve; in most records, active means well fitted cell-killing curve with a large enough effect; inconclusive means small, poorly fitted or top-dose-only effect, or effect the other way; inactive means no such curve, though single readings can be large or run the other way.
Your reply should match one of these outcome classes. 1 (yes) for active, 0 (no) for inactive

Please review the following examples before continuing.
[in] Tell me the assay call for C=Cc1c(C)c2cc3nc(cc4[nH]c(cc5nc(cc1[nH]2)C(C)=C5CCC(=O)O)c(CCC(=O)OC)c4C)[C@@]1(C)C3=CC=C(C(=O)OC)[C@H]1C(=O)OC please.
[out] 1 (yes)

[in] Tell me the assay call for C[C@H](CCC(=O)O)[C@H]1CCC2C3C[C@H](O)[C@@H]4C[C@H](O)CC[C@]4(C)C3CC[C@@]21C (some centres undefined) please.
[out] 0 (no)

Others:
[in] Tell me the assay call for N#CC(=C(O)c1ccc(Cl)cc1Cl)c1nc2cc(Cl)ccc2c(=O)[nH]1 please.
[out] 0 (no)

[in] Tell me the assay call for C#C[C@]1(O)CC[C@@H]2[C@@H]3CCc4cc(O)ccc4[C@H]3CC[C@@]21C please.
[out] 1 (yes)

[in] Tell me the assay call for CCOC(=O)C1=C(C)NC(=S)NC1c1cccc(O)c1 (centres undefined) please.
[out] 1 (yes)
